tested on: Mouse colon cancer CT26 cells; assay: Proliferation of CT26 cells, CCK8, MRTX1133 with or without IN10018 (Example 3); format: cell-based; details: 72 hours, combination group: 5 μM IN10018 added to each well
pIC50: −log10 of the molar value.

{"smiles str": "C#Cc1c(F)ccc2cc(O)cc(-c3ncc4c(N5CC6CCC(C5)N6)nc(OC[C@@]56CCCN5C[C@H](F)C6)nc4c3F)c12", "pIC50": 6.55}
